FYI, the data here is from patent US20100280061A1.

Reported MOR agonist activity, [35S]GTPγS binding to Gαo, 0.1 μM by item:
- tgt: mu opiate receptor (MOR) (Rattus norvegicus)
- Construct: from tissue; host or cells: striatal tissue (membrane preparation)
- Sequence (P33535 whole entry): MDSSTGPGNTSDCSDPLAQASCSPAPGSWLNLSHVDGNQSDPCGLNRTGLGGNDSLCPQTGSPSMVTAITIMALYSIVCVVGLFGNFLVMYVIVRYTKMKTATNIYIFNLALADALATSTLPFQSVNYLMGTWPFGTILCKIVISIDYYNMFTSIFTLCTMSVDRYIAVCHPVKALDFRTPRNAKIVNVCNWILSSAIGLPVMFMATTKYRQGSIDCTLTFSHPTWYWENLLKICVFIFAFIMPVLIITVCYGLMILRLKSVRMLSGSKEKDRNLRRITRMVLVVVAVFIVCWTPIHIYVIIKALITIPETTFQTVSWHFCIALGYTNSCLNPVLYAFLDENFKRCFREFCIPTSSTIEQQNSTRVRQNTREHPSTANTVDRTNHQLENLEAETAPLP
- assay_remarks: [35S]GTPγS binding assay using striatal membranes (MOR agonist activity)
- Type: biochemical
- Parameters: reference not given here
- experimental_setup: 0.1 μM compound, striatal membranes
Express it in %; write the number only.

Please review the following examples before continuing.
COc1c2c(cc3c1C(CC(O)CCc1ccccc1)[N+](C)(C)CC3)OCO2 (centres unmarked) [B0052]: 98.2
COc1c2c(cc3c1C(CC(=O)c1ccncc1)[N+](C)(C)CC3)OCO2 (centres unmarked) [B0005]: 89.2
COc1c2c(cc3c1C(CC(=O)CCc1ccc(F)cc1)[N+](C)(C)CC3)OCO2 (centres unmarked) [B0018]: 118.8
COc1ccc(CCC(=O)CC2c3c(cc4c(c3OC)OCO4)CC[N+]2(C)C)cc1OC.[I-] (centres unmarked) [B0042]: 69.9

# input for lookup
Prompt line: Reported MOR agonist activity, [35S]GTPγS binding to Gαo, 0.1 μM, molecule COc1ccc(CCC(=O)CC2c3c(cc4c(c3OC)OCO4)CC[N+]2(C)C)cc1 (centres unmarked) [B0016] : ____
Response line: 167.7

###

- tgt: Bn-VAKGL pentapeptide of filamin A (FLNA) (Homo sapiens, UniProt P21333)
- assay_remarks: FITC-NLX-based FLNA screening assay (FLNA peptide binding assay)
- experimental_setup: 0.01 μM compound, 10 nM FITC-NLX
- Protocol: The final assay volume is 100 μl. Compounds are tested in triplicate or quadruplicate.
endpoint_name: Percent inhibition of FITC-NLX binding, 0.01 μM (%)
Express it in %; write the number only.

Please review the following examples before continuing.
COc1ccc(C(=O)CC2c3c(cc4c(c3OC)OCO4)CC[N+]2(C)C)cc1 (centres unmarked): 34.8
CCOc1ccc(C(=O)CC2c3c(cc4c(c3OC)OCO4)CC[N+]2(C)C)cc1F (centres unmarked): 38.1
COc1c2c(cc3c1C(CC(=O)Cc1ccccc1Cl)[N+](C)(C)CC3)OCO2.[I-] (centres unmarked): 43.3

Prompt line: Reported Percent inhibition of FITC-NLX binding, 0.01 μM, molecule COc1ccc(CCC(O)CC2c3c(cc4c(c3OC)OCO4)CC[N+]2(C)C)cc1 (centres unmarked) : ____
Response line: 32.2

Prompt line: Now consider COc1ccccc1C(=O)CC1c2c(cc3c(c2OC)OCO3)CC[N+]1(C)C (centres unmarked) .
Response line: 41.7

Prompt line: Now consider COc1c2c(cc3c1C(CC(=O)CCc1ccccc1)N(C)CC3)OCO2 (centres unmarked) .
Response line: 29.2

Prompt line: Now consider COc1cc(C(=O)CC2c3c(cc4c(c3OC)OCO4)CC[N+]2(C)C)cc(OC)c1OC (centres unmarked) .
Response line: 47.4

Prompt line: Now consider COc1c2c(cc3c1C(CC(O)CCc1ccccc1)N(C)CC3)OCO2 (centres unmarked) .
Response line: 29.9

Prompt line: Now consider COCOc1ccc(C(=O)CC2c3c(cc4c(c3OC)OCO4)CC[N+]2(C)C)cc1C.[I-] (centres unmarked) .
Response line: 44.0

Prompt line: Now consider COc1c2c(cc3c1C(CC(=O)/C=C/c1ccc(Cl)cc1)[N+](C)(C)CC3)OCO2 (centres unmarked) .
Response line: 34.3

Prompt line: Now consider COc1ccccc1CCC(=O)CC1c2c(cc3c(c2OC)OCO3)CC[N+]1(C)C (centres unmarked) .
Response line: 63.2

Prompt line: Now consider COc1ccc(OC)c(CCC(=O)CC2c3c(cc4c(c3OC)OCO4)CC[N+]2(C)C)c1 (centres unmarked) .
Response line: 35.2

Prompt line: Now consider COc1ccc(C(=O)CC2c3c(cc4c(c3OC)OCO4)CC[N+]2(C)C)cc1C.[I-] (centres unmarked) .
Response line: 32.5

Prompt line: Now consider COc1ccc(C(=O)CC2c3c(cc4c(c3OC)OCO4)CC[N+]2(C)C)c(O)c1.[I-] (centres unmarked) .
Response line: 42.1

Prompt line: Now consider COc1c2c(cc3c1C(CC(=O)CCc1ccc(O)cc1)[N+](C)(C)CC3)OCO2.[I-] (centres unmarked) .
Response line: 38.2

Prompt line: Now consider COc1cccc(OC)c1CC(=O)CC1c2c(cc3c(c2OC)OCO3)CC[N+]1(C)C.[I-] (centres unmarked) .
Response line: 46.6

Prompt line: Now consider COc1c2c(cc3c1C(CC(=O)CCc1ccc(F)cc1)[N+](C)(C)CC3)OCO2 (centres unmarked) .
Response line: 37.2

Prompt line: Now consider COc1c2c(cc3c1C(CC(=O)Cc1ccccc1C)[N+](C)(C)CC3)OCO2 (centres unmarked) .
Response line: 36.2

Prompt line: Now consider COc1ccccc1CC(O)CC1c2c(cc3c(c2OC)OCO3)CCN1C (centres unmarked) .
Response line: 47.0

Prompt line: Now consider COc1cc(OC)cc(C(=O)CC2c3c(cc4c(c3OC)OCO4)CC[N+]2(C)C)c1.[I-] (centres unmarked) .
Response line: 45.4

Prompt line: Now consider COc1ccccc1CC(O)CC1c2c(cc3c(c2OC)OCO3)CC[N+]1(C)C.[I-] (centres unmarked) .
Response line: 45.1

Prompt line: Now consider COc1ccc(CCC(=O)CC2c3c(cc4c(c3OC)OCO4)CC[N+]2(C)C)cc1OC.[I-] (centres unmarked) .
Response line: 40.8
